- Test system: HTT
- Assay Details: Gene panel canonical junction qPCR assay, HTT CJ mRNA (Table 7)
- Type: cell-based, human
- Test Settings: Homo sapiens, read-out: HTT CJ mRNA decrease IC50
Endpoint Name: IC50

1) COc1cc(-c2ccc3c(c2)COc2nc(O[C@@H]4C[C@H]5COC[C@@H](C4)N5)ccc2-3)cnn1 = < 100 nM
2) COc1cc(-c2ccc3c(c2)COc2nc(N4CC[C@H](N(C)C(C)(C)C)C4)ccc2-3)cnn1 = < 100 nM
3) COc1cc(-c2ccc3c(c2)COc2nc(N4CCC(NC5(C)CC5)C4)ccc2-3)cnn1 (centres unmarked) = 100 to 1000 nM
4) CCc1cc(-c2ccc3c(c2)COc2nc(N4CCC(NC(C)(C)C)C4)ccc2-3)cnn1 (centres unmarked) = > 10000 nM
5) c1cnn(-c2ccc3c(c2)COc2nc(N4CCCC5(CCNC5)C4)ccc2-3)c1 (centres unmarked) = > 10000 nM
6) CCN(c1ccc2c(n1)OCc1cc(-n3cccn3)ccc1-2)C1CC(C)(C)NC(C)(C)C1 = > 10000 nM
7) c1cc2c(cc1-c1cn[nH]c1)COc1nc(O[C@@H]3C[C@H]4CC[C@@H](C3)N4)ccc1-2 = < 100 nM
8) FC1(F)CC2CC(Oc3ccc4c(n3)OCc3cc(-c5cn[nH]c5)ccc3-4)CC1N2 (centres unmarked) = 1000 to 10000 nM
